- System: DMS-273
- assay.comment: NCI tumour cell line growth inhibition, 48 h
Calls of active or inactive are those of the source. Rule as the data show it: active = GI50 up to about 1.1 µM and inactive = higher.

molecule	GI50
Cc1cccc2c1CCC21OC(=O)c2c1ccc1ccccc21 (stereo not given)	32.7 µM (inactive)
C=CCC1(CC)C(=O)NC(=O)NC1=O	> 100 µM (inactive)
C[C@]12CCNC(=O)C=C1CC[C@@H]1C2CC[C@@]2(C)C1CC[C@@H]2OC(=O)COc1ccc(N(CCCl)CCCl)cc1 (stereo not given in full)	0.638 µM (active)
CCOc1ccc2c(c1)[n+]([O-])c(C(N)=O)c(N)[n+]2[O-]	> 100 µM (inactive)
CCOc1ccc(/N=N/c2ccc3oc(=O)c(/C(C)=N/NC(=O)CC(=O)Nc4cccc(OC)c4)cc3c2)cc1	24.8 µM (inactive)
CN(C)c1ccc(-c2cc(O)c3cc4c(cc3n2)OCO4)cc1	> 100 µM (inactive)
CN(C)/N=N/c1ccc(S(N)(=O)=O)cc1	> 100 µM (inactive)
Cc1ccc(S(=O)(=O)NC2(C=O)CCC(C(C)(C)C)CC2)cc1 (stereo not given)	27.7 µM (inactive)
COc1cc(OC)c(C2CC=Cc3c(OC)cc(OC)c(OC)c32)cc1OC (stereo not given)	> 100 µM (inactive)
COc1ccc(C(=O)C/C(=N/NC(N)=S)C(=O)Nc2ccccc2)cc1	> 100 µM (inactive)

====

- System: OVCAR-3
- assay.comment: NCI tumour cell line growth inhibition, 48 h
Activity calls are given as the source filed them. Cut-off read from the data, not from the text of the source: active = GI50 up to about 1.1 µM and inactive = higher.
Measured GI50 of individual entries
assay.readout: GI50

molecule	reported.measurement
COc1cc2nn(-c3ccccc3)nc2c2nonc12	> 100 µM (inactive)
c1ccc(CSc2nc(N3CCOCC3)c3cn[nH]c3n2)cc1	27.7 µM (inactive)
Nc1nc2c(ncn2CCCC(c2ccccc2)P(=O)(O)O)c(=O)[nH]1 (stereo not given)	> 100 µM (inactive)
Cc1cc2c(c(C(=O)NCCC(=O)N[C@@H](C)C(=O)OCc3ccccc3)c1)Oc1c(cc(C)cc1C(=O)NCCC(=O)N[C@@H](C)C(=O)OCc1ccccc1)S2	> 100 µM (inactive)
N#CC(C#N)=CNC(=S)Nc1ccc(S(=O)(=O)Nc2nccs2)cc1	> 100 µM (inactive)
O=C1C=C/C(=N/c2cccc3c(/N=C4/C=CC(=O)O4)cccc23)O1	51.6 µM (inactive)
COc1cccc2c(=O)oc(-c3ccc(C(C)(C)C)cc3)nc12	29.9 µM (inactive)
CCOC(=O)C(Cc1c2ccccc2cc2ccccc12)(NC(C)=O)C(=O)OCC	> 64.7 µM (inactive)
COc1ccc(/C=c2/sc3n(c2=O)C(c2ccccc2)C2(O)CCCCC2N=3)cc1 (stereo not given)	> 12.5 µM (inactive)
Clc1nc(Cl)c(-c2ccccc2)c(Cl)n1	3.57 µM (inactive)

====

- Tested on: NCI-H460
- assay.comment: NCI tumour cell line growth inhibition, 48 h
Active and inactive are the calls of the source. No stated cut-off is given here; in the data, active = GI50 up to about 1.1 µM and inactive = higher.

molecule	target.or.system	GI50
Cc1ccccc1C(C#N)/C(=N/NC(=O)c1cc2ccccc2cc1O)C(=O)Nc1cccc(Cl)c1 (stereo not given)	NCI-H460	28.7 µM (inactive)
COc1cc(/C=C2\C(=O)N(c3ccccc3)C(c3ccccc3)S2(=O)=O)cc(OC)c1OC (stereo not given)	NCI-H460	54 µM (inactive)
CN(C)Cc1c(O)ccc2c1c1c(n2C)C(=O)c2ccccc2C1=O	NCI-H460	1.85 µM (inactive)
O=C1CC(c2ccccc2)NCCCCN2CC(CN1)C(C(O)c1ccccc1)C2=O (stereo not given)	NCI-H460	> 100 µM (inactive)
O=c1[nH]cnc2c1ncn2[C@@H]1C[C@@H]1CO	NCI-H460	> 100 µM (inactive)
CCOC(=O)c1sc2[n+](c1C)C(=O)/C(=C/c1ccc([N+](=O)[O-])cc1)S2	NCI-H460	19.7 µM (inactive)
Cc1ccc(N2Cc3c(ccc4ccccc34)OP2(=S)N2CCCC2)cc1 (stereo not given)	NCI-H460	> 100 µM (inactive)
C[C@@H]1OC(=O)N2CCCC(=C3SCCCS3)C12 (stereo not given in full)	NCI-H460	> 100 µM (inactive)
C[N+](C)(C)CC(=O)N/N=C(/C=C/c1ccccc1)CC1OC(=O)c2ccccc21 (stereo not given)	NCI-H460	> 100 µM (inactive)
COc1cc(OC)c(C2CC=Cc3c(OC)cc(OC)c(OC)c32)cc1OC (stereo not given)	NCI-H460	> 100 µM (inactive)
Cc1ccc2c(=O)c(C(=O)N(CCO)CCO)c[nH]c2n1	NCI-H460	> 100 µM (inactive)
O=C(O)c1cccc(Nc2c(C(=O)O)cccc2[N+](=O)[O-])c1	NCI-H460	> 100 µM (inactive)
COc1cccc2c(=O)oc(-c3ccc(C(C)(C)C)cc3)nc12	NCI-H460	65.8 µM (inactive)
CN(C)/N=N/c1ccc(S(N)(=O)=O)cc1	NCI-H460	> 100 µM (inactive)
Cc1cc2c(cc1C)NC(=O)C(NC(=O)/C=C/c1ccccc1)C=N2 (stereo not given)	NCI-H460	30.8 µM (inactive)
CCOC(=O)/C(=N\Nc1ccc(-n2c(C)nc3ccc(Br)cc3c2=O)cc1)C(C)=O	NCI-H460	99.3 µM (inactive)
CCOC(=O)C(C)c1nc2cc3cccnc3c(Cl)c2[nH]c1=O (stereo not given)	NCI-H460	32.4 µM (inactive)
COc1ccccc1/C=C1\S/C(=N/Nc2nc(C)c(C(C)=O)s2)NC1=O	NCI-H460	55.7 µM (inactive)
CC1(C)CSCC(C)(C)C(=N/N)/C1=N\N	NCI-H460	> 100 µM (inactive)
COC(=O)C(=O)C(C(=O)C(=O)Nc1ccccc1C(C)=O)c1nc2ccc(C(=O)c3ccccc3)cc2nc1O (stereo not given)	NCI-H460	58.9 µM (inactive)
